TEST DETAILS: yeast display, Sf9 membrane polyspecificity reagent, FACS + sequencing; frameworks hold sequencing errors
MEASUREMENT NAME: polyreactivity (PSR sort gate)

Examples with their reported polyreactivity (PSR sort gate) follow.
{"RESIDUE CODES": "QVQLVESGGGLVQAGGSLRLSCAASGRTFVENAMGWYRQAPGKERELVAAITYRGGRTFYADSVKGRFTISRDNAKNTVYLQMNSLKPEDTAVYYCNAVRRTGGHGDYWGQGTQVTVSS", "polyreactivity (PSR sort gate)": "high polyreactivity"}
{"RESIDUE CODES": "QVQLVESGGGLVQAGGSLRLSCAASGSTFVQYDMGWYRQAPGKERELVAGITRTGSTYADSVKGRFTISRDNAKNTVYLQMNSLKPEDTADYYCAVYVSGYAQTSRYDYWGQGTQVTVSS", "polyreactivity (PSR sort gate)": "low polyreactivity"}
{"RESIDUE CODES": "QVQLVQSAGGLVQAGGSLRLSCAASGSILSINGMGSYRQAPGKERELVATIDGSDGSTFYADSVKGRLTISRDNAKNTVYFQMNSLKPEDTAVYYCAAENLWQTKEYDYWGLGTQVTVSS", "polyreactivity (PSR sort gate)": "low polyreactivity"}
{"RESIDUE CODES": "QVQLVESGGGLVQAGGSLRLSCAASGFIFHKYAMGWYRQAPGKERELVARITGSGASTFYADSVKGRFTISRDNAKNTVYLQMNSLKPEDTAVYYCAATIGSLLKYNRHRYYYWGQGTQVTVSS", "polyreactivity (PSR sort gate)": "high polyreactivity"}

Please look at the following sequence next.
Please report the recorded polyreactivity (PSR sort gate) for "QVQLVESGGGLVQAGGSHRLSCAASGSTFDYYAMGWYRQAPGKERELVAAITFSGDRTYYADSVKGRFTISRDNAKNTVYLQMNSLKPEDTAVYYCAARWFVYRYIFDYWGQGTQVTVSS" .
high polyreactivity

###

TEST DETAILS: yeast display, Sf9 membrane polyspecificity reagent, FACS + sequencing; frameworks hold sequencing errors
MEASUREMENT NAME: polyreactivity (PSR sort gate)

{"RESIDUE CODES": "QVQLVESGGGLVQAGGSLRLSCAASGSIFSYNAMGWYRQAPGKERELVAAISSGDYTYYADSVKGRFTISRDNAKNTVYLQMNSLKPEDTAVYYCAAPYVYSRGLSGDYYWGQGTQVTVSS", "RESULT": "high polyreactivity"}
{"RESIDUE CODES": "QVQLVESGGGLLHAGGSLRLSCAASGRTFDHYAMGWYRQAPGKERELVAAISSRGSSTYYADSVKGRFTISRDNAKNTVYLQMNSLKPEDTAVYYCAAKYIRDYTSNPRGYWGHGTQVTVSS", "RESULT": "high polyreactivity"}
{"RESIDUE CODES": "QVQLVESGVGLVQAGGSLRLICADSGSIFSQYAMGGYRPAPGKERELVAAISKNGGSTYYADSVKGRFTISRDNAKNTVYSQMNSLKPEDTAVYYCAARVLKGYYWGQGTQVTVSS", "RESULT": "high polyreactivity"}
{"RESIDUE CODES": "QVQLVESGGGLVQAGGSLRLSCADSGRIFGRYAMGWYRQAPGKERDLVAAIRSGGSTYYADSVKGRFTISRDNAKNSVYLQMNSLKPEDTAVYYCAADWGPFRLGYGYYYWGQGTQVTVSS", "RESULT": "high polyreactivity"}
{"RESIDUE CODES": "QVQLVESGGRLVQAGGSLRLSCAASGSIFQYYARGWYRQAPGKVREFVSAITSDGSSTYYADSVKGRFTISRDNAKNTVYLQMKSLKPEDTAVYYCAAGWVGYRRPSMYYWGQVTQVTVSS", "RESULT": "high polyreactivity"}
{"RESIDUE CODES": "QVQLVESGGGLVQAGGSLRLSCAASGRIFYRYAMGWYRQAPGKERELVATITSGGGTHYADSVKGRFTISRDNAKNTVYLQMNSLKPEDTAVYYCAAVQWYGYPYYSWGQGTQVTVSS", "RESULT": "low polyreactivity"}
{"RESIDUE CODES": "QVQLVESGGGLVQAGGSLRLSCAASGSIFWFYAMGWYRQAPGKERELVAAISYSGGITYYADSVKGRFTISRDNAKNTVYLQMNSLKPEDTAVYYCNADGPSTPWVDYGYWGQGTQVTVSS", "RESULT": "low polyreactivity"}
{"RESIDUE CODES": "QVQLVESAGGLVQAGGSLRLSCAASGITFNDNAMGGYRQAPGKERELVAAINSGNGTDYEDSVKGRFTISRDNAKNTVYLQMNSLKPEDTAVYYCATEGYVQGDLGYLYTRYAFYYWGQGTQVTVSS", "RESULT": "low polyreactivity"}

Please report the recorded polyreactivity (PSR sort gate) for "QVQLVESGGGLYQAGGSLRLTCAASGNIFYINTMGWYRQAPGKEMELVAAIEASDGSTYYADSVKGRFTISRDKAKNTVYLLMNSLKPEVTAVNYCATRRGYDSVYYFYTLWYYYWGQGTQVTVSS" .
low polyreactivity

And then "QVQLVESGGGLVQAGGSLRLSCAASGRTFTSYAMGWYRQAPGKEREFVAAITTSGGSTYYTDSVKGRFTISRDNAKNTVYLQMNSLKPEDTAVYYCAAYVAYDRSGQYDYWGQGTQVTVSS" , what is it?
high polyreactivity

And then "QVQLVESGGGLVQAGGSLRLSCAASGITFRSYAMGWNIQAPGKERELVAAITTGTRTYYADSVKGRFTISRDNAKNTVFLQMKSLKPEDTAVYYCARDGVGRVYGYLTPLGYDYWGHGTQVTVSS" , what is it?
low polyreactivity

And then "QGHREESGGGLVQAGGSLRLSCAASGSTFGIYALGWYIQEQGKERELVAAITWSGSSTYYADSVKGRFTISRDNAKNNVYLQINSLKPEDTAVYYCAAEDTLYEYYYWGQGTQVTVSS" , what is it?
high polyreactivity

And then "QVQLVESGGGLVQAGGSLRLSCAASGFTFRPYVMGCYRQAPGKERELVAGISTGGSTYYADSVKGRFTISRDNAKNTVYLQMNSLKPEDTAVYYCAKRGKQYRKMNYWGQGTQVTVSS" , what is it?
high polyreactivity

And then "QVQLVESGGGLVQAGGSLRLSCAASGFIFYRNTMGWYRQAPGKEREFVAAIRWRGGSTYYADSVKGRFTISRDNAKNTVYLQMNSLKPEDTAVYYCAAGTPWSVEGSYVTYPWNRYYYWGQGTQVTVSS" , what is it?
high polyreactivity

And then "QVQLVESGGGLVQAGGSLRLSCAASGSIFRYYAMGWYRQAPGKERELVARISSGGSTYYADSVKGRFTISRDNAKNTVYLQMNSLKPEDTAVYYCNAGAPARYWWEGDYWGQGTQVTVSS" , what is it?
high polyreactivity

###

TEST DETAILS: yeast display, Sf9 membrane polyspecificity reagent, FACS + sequencing; frameworks hold sequencing errors
MEASUREMENT NAME: polyreactivity (PSR sort gate)

Examples with their reported polyreactivity (PSR sort gate) follow.
{"RESIDUE CODES": "QVQLVESGGGLVQAGGSLRLSCAASGSILLGYAMGWYRQAPGKERELVAAITFRGGSTYYADSVKGRFTISRDNAKNTVYLQMNSLKPEATAVYYCAKVWWLYSSTYLRYYWGQGTQVTVSS", "RESULT": "low polyreactivity"}
{"RESIDUE CODES": "QVHLVESGGGLVQAGGSLRLSCAASGSIFPYYVMGWYRQAPGKERELVAAISSGGNTYYADSVKGRFTISRDNAKNTVYLQMNSLKPEDTAVYYCNADKSYFVLLFGGYDYWGQGTQVTVSS", "RESULT": "high polyreactivity"}
{"RESIDUE CODES": "QDQLVESGGGLVQAGGSLRLPCAASGYIFFFNAIGWYRQAPGKERELVAAITRRGVSTYYADSVKGRFTISRDNAKNTVYLQMNSLNPEDTAVYYCATDHNHLGYYYWGQGTQVTVSS", "RESULT": "low polyreactivity"}
{"RESIDUE CODES": "QVQLVESGGGLVQAGGSLRLSCAASGFIFGGYAMGWYRQAPGKERELVAAITWSGGNTYYADSVKGRFTISRDNAKNTVYLQMNSLKPEDTAVYYCAADYWTKYGYWGQGTQVTVSS", "RESULT": "low polyreactivity"}

Please report the recorded polyreactivity (PSR sort gate) for "QVQLVESGGGLVQAGGSLRLSCASSRFNFRSYAMGWYRHPPGKERELVAAISRSGGSTYYADSVKGRFTISRDNAKNTVYLQMNSLKPEDTAVYYCAAEYRIPYFFTYGYWGQGTQVTVSS" .
high polyreactivity

###

TEST DETAILS: yeast display, Sf9 membrane polyspecificity reagent, FACS + sequencing; frameworks hold sequencing errors
MEASUREMENT NAME: polyreactivity (PSR sort gate)

Examples with their reported polyreactivity (PSR sort gate) follow.
{"RESIDUE CODES": "QVQHVESGGGLVQAGRSLRLSCAASGSIFRDNDMGWYRQATGKEREFVAAINWSGVSTYYADSVKGRFTISRDNAKNTVYLQMNSLKPEDTAVSYCAAGYLKWRRYNYWGQGTQVTVSS", "polyreactivity (PSR sort gate)": "high polyreactivity"}
{"RESIDUE CODES": "QVQLVESGGGLVQAGGSLRLSCSASGFTFYYAMGWYRQAPGKERELVAAITSSGTTYYADSVKGRFTISRDNAKNTVYLQMHSLKPEDTAVYYCNAVRWSKYAFYDYWGQGTQVTVSS", "polyreactivity (PSR sort gate)": "high polyreactivity"}
{"RESIDUE CODES": "QVQLVESGGGLVQAGGSLRLSCAASGSTFYTNAMGWYRQAPGKERELVAAISGSGGSTNYADSVKGRFTISRDNAKNTVYLQMISLKPEDTAVYYGAADGSNYSGSVAAFPYRVDYWGQGTQVNVSS", "polyreactivity (PSR sort gate)": "low polyreactivity"}
{"RESIDUE CODES": "QVQLVESGGGLVQAGGSLRLSCAASGRTFPRNGMGWYRQAPGKERELVAAISWSGGRTYYADSVKGRFTISRDNAKNTVYLQMNSLKPEDTAVYYCNALYFRKAGYWGKGTQVTVSS", "polyreactivity (PSR sort gate)": "high polyreactivity"}
{"RESIDUE CODES": "QVQLVESGGGLVQAGGSLRLSCAASGSTLGQYVMGWYRQAPGKERELVAAISRRGGRTNYADSVKGRFTISRDNAKNTVYLQMNSLNPEDTAVYYCAAKFRIYRPSKYYYWGQGTQVTVSW", "polyreactivity (PSR sort gate)": "high polyreactivity"}

Please look at the following sequence next.
Please report the recorded polyreactivity (PSR sort gate) for "QVQLVESGGGLVQAGGSLRLSCAASGRIFDLNAMGWYRQAPGKERELVAAITFSGGDTYADSVKGRFTISRDNAKNTVYLEMYSLKPEDTAVYYCAKDHYGDDTYGTPYDYDYWGQGTQVTVSS" .
low polyreactivity
